- System: OVCAR-3
- experiment: Growth inhibition of human OVCAR3 cells
- Assay type: functional
Give measured GI50 for each item. Keep answers brief.
One number for each entry, in µM.

Some entries whose results are on file:
COc1ccc2c(c1)C(=O)c1c-2n(CCCN)c(=O)c2cc(N)ccc12 ... 0.02
COC(=O)CC(=O)Nc1ccc2c3c(n(CCCN)c(=O)c2c1)-c1ccccc1C3=O ... 3.22
NCCCn1c2c(c3ccc(N)cc3c1=O)C(=O)c1ccccc1-2 ... 0.13
COc1ccc2c(c1)-c1c(c3ccc([N+](=O)[O-])cc3c(=O)n1CCCn1ccnc1)C2=O ... 0.03
COC(=O)CCCC(=O)Nc1ccc2c3c(n(CCCN)c(=O)c2c1)-c1ccccc1C3=O ... 1.47
NCCCn1c2c(c3ccc(NCC(=O)O)cc3c1=O)C(=O)c1ccccc1-2 ... 1.6

Take each entry in turn and give its GI50.
1. CN(C)CCCn1c2c(c3ccc(C#N)cc3c1=O)C(=O)c1ccccc1-2
2. COc1ccc2c(c1)-c1c(c3ccc([N+](=O)[O-])cc3c(=O)n1CCCN)C2=O
3. O=C1c2ccccc2-c2c1c1ccc([N+](=O)[O-])cc1c(=O)n2CCCO
4. COC(=O)C(=O)Nc1ccc2c3c(n(CCCN)c(=O)c2c1)-c1ccccc1C3=O

Result ::
1. 1.72
2. 0.54
3. 0.87
4. 4.01
